Source listed as ChEMBL document CHEMBL1201862.

- System: SW-620
- Assay comment: NCI tumour cell line growth inhibition, 48 h
The source made the active and inactive calls. Cut-off read from the data, not from the text of the source: active = GI50 up to about 1.1 µM and inactive = higher.
Experimental readout: GI50

Take a look at these entries with their results.
Compound	GI50
Oc1cccc(-c2cn3cc(C(F)(F)F)ccc3n2)c1	67.8 µM (inactive)
COc1ccc(C(=O)C2CC3(CCC2(O)c2ccc(OC)cc2)CC(=O)Nc2ccccc2C3=O)cc1 (configuration not stated)	> 100 µM (inactive)
O=C1C=CC2(O)OCC3C=C4O[C@@H]5OC6(CCCCC6)O[C@@H]5C4[C@@H]2[C@@H]13 (some centres not stated)	27.4 µM (inactive)
c1ccc2c(c1)Nc1cccc3c1c-2nc1cc2ccccc2cc13	1.53 µM (inactive)

[in] # GI50 lookup, item COc1cc(C2c3cc4c(cc3[C@@H](Nc3ccc(Oc5ccccc5)cc3)C3COC(=O)[C@H]23)OCO4)cc(OC)c1O (some centres not stated)
[out] 2.07 µM (inactive)

[in] CCOC(=O)C1=CN(Cc2ccccc2)C2ON=C(c3ccc(Cl)cc3)C2C1 (configuration not stated) ?
[out] > 52.5 µM (inactive)

[in] C[C@H]1C2Cc3cc(N)ccc3[C@@]1(C)CCN2CCc1ccccc1 ?
[out] 64.7 µM (inactive)

* * *

These compounds were tested on HCT-15; log10 GI50 is the recorded read-out.
Hello, just confirming the data are log10 of GI50 with units of µM.

Take a look at these entries with their results.
Compound	Tested system	log10 GI50
N#C[C@H](C(=O)c1ccccc1F)c1nc2ccccc2s1	HCT-15	1.74
CN(C)CCC(=O)N1C/C(=C/c2ccccc2)C(=O)/C(=C\c2ccccc2)C1	HCT-15	0.02
CCOC(=O)/C=C(/C(=O)OCC)n1cc(Cl)c(=O)n(CC(=O)OCC)c1=O	HCT-15	0.74
O=C1/C(=C\c2ccc(-c3ccc(Cl)cc3Cl)o2)SC2NC(COc3ccc(Cl)cc3)=NN12 (centres undefined)	HCT-15	1.54

[in] # log10 GI50 lookup, item COc1ccc2c(C)cc(N/N=C(\C)C=O)nc2c1
[out] 0.58

[in] O=C1CSC(=S)N1/N=C/c1ccc(Cl)c([N+](=O)[O-])c1 ?
[out] 1.31

* * *

- Tested on: MOLT-4
- Assay comment: NCI tumour cell line growth inhibition, 48 h
Active and inactive are the calls of the source. No stated cut-off is given here; in the data, active = GI50 up to about 1.1 µM and inactive = higher.
Hi! Could you answer with just one of these? active, inactive

Answered examples (5):
Molecule	Tested system	Answer label
Cc1cc(N(CCC#N)CCC#N)ccc1/C=C1\N=C(c2cc([N+](=O)[O-])ccc2Cl)N(c2cccc(Cl)c2)C1=O	MOLT-4	inactive
CCOc1cc2c(cc1O)/C(=N\O)C[C@@H]1[C@@H]2CC[C@]2(C)[C@@H](O)CC[C@@H]12	MOLT-4	active
COC(=O)c1cc2c(cc1Cl)Sc1nnc(Nc3ccc(C)cc3)n1S2(=O)=O	MOLT-4	inactive
O=C1CN(c2ccccc2)Cc2nc(Cl)ccc2N1	MOLT-4	inactive
CCOC(=O)c1c(SC(=O)C(C)(C)Oc2ccc(Cl)cc2)n(-c2ccccc2)c(=S)n(-c2ccccc2)c1=O	MOLT-4	inactive

[in] What outcome does the record of this test show for CCSc1n/c(=C\c2ccc(N(C)C)cc2)c2nnnn12 ?
[out] inactive

[in] COc1ccccc1Nc1nc2c([nH]1)c(=O)n(C)c(=O)n2C ?
[out] inactive

[in] O=P1(O)c2ccccc2CCc2ccccc21 ?
[out] inactive

[in] NC1CCC(c2cc3ccccc3s2)(N2CCCCC2)CC1 (stereo not drawn) ?
[out] inactive

[in] C/C(=N\Nc1nc2cccnc2s1)c1ccccn1 ?
[out] active

* * *

- System: SW-620
- Assay comment: NCI tumour cell line growth inhibition, 48 h
The source made the active and inactive calls. Rule as the data show it: active = GI50 up to about 1.1 µM and inactive = higher.
Each entry below carries its recorded GI50.

Take a look at these entries with their results.
Compound	Observed result
C=CCCC(On1c(-c2ccc(Cl)cc2)csc1=S)c1ccccc1 (stereo not given)	8.73 µM (inactive)
COc1ccc(-c2nc(O)c3ccccc3n2)c(OC)c1	> 100 µM (inactive)
COc1cc(Oc2nc3ccccc3nc2C(=O)O)cc(OC)c1OC	> 100 µM (inactive)
OC(CCl)CN1CC[N+]2(CC1)CC[N+]1(CCN(CC(O)CCl)CC1)CC2 (stereo not given) [PROSPIDIUM CHLORIDE]	> 50 µM (inactive)
COc1ccc(OC)c2[s+]snc12	68.2 µM (inactive)

[in] # GI50 lookup, item CC1CCSC(N(C(=O)N(C)c2ccccc2)c2ccccc2)=N1 (stereo not given)
[out] > 100 µM (inactive)

[in] c1ccc2c(CNCCCCCCCCNCc3cccc4ccccc34)cccc2c1 ?
[out] 1.8 µM (inactive)

[in] CCc1cn2c(/C=N/N=C(N)N)c(-c3cc(C)c(Cl)cc3Cl)nc2s1 ?
[out] 1.64 µM (inactive)

[in] C#CCN(C(=O)C(F)(F)F)C(/C=C\C(=O)OC)(C(=O)OCC)C(=O)OCC ?
[out] > 100 µM (inactive)

[in] CC1(C)CC[C@]2(C(=O)O)CC[C@]3(C)C(=CC[C@@H]4[C@@]5(C)CC[C@H](OC6OC(CO)C(O)C(O)C6O)C(C)(C)[C@@H]5CC[C@]43C)[C@@H]2C1 (stereo not given in full) ?
[out] 1.82 µM (inactive)

* * *

- Test system: MOLT-4
- Assay comment: NCI tumour cell line growth inhibition, 48 h
Active and inactive are the calls of the source. Cut-off read from the data, not from the text of the source: active = GI50 up to about 1.1 µM and inactive = higher.
Experimental readout: GI50

Compound	GI50
O=CC12C3CCC1C2C(=O)C3 (stereo not drawn)	> 100 µM (inactive)
Cc1cccc(/C=C2/C(=O)Nc3ccccc32)n1	7.5 µM (inactive)

Next:
[in] # GI50 lookup, item COc1cc([N+](=O)[O-])ccc1N1C(=O)C2c3[nH]c4ccccc4c3C3CCC(C(C)(C)C)CC3C2C1=O (stereo not drawn)
[out] > 100 µM (inactive)
